- test-target: Metabotropic glutamate receptor 5 (Homo sapiens)
- Sequence (P41594 whole entry): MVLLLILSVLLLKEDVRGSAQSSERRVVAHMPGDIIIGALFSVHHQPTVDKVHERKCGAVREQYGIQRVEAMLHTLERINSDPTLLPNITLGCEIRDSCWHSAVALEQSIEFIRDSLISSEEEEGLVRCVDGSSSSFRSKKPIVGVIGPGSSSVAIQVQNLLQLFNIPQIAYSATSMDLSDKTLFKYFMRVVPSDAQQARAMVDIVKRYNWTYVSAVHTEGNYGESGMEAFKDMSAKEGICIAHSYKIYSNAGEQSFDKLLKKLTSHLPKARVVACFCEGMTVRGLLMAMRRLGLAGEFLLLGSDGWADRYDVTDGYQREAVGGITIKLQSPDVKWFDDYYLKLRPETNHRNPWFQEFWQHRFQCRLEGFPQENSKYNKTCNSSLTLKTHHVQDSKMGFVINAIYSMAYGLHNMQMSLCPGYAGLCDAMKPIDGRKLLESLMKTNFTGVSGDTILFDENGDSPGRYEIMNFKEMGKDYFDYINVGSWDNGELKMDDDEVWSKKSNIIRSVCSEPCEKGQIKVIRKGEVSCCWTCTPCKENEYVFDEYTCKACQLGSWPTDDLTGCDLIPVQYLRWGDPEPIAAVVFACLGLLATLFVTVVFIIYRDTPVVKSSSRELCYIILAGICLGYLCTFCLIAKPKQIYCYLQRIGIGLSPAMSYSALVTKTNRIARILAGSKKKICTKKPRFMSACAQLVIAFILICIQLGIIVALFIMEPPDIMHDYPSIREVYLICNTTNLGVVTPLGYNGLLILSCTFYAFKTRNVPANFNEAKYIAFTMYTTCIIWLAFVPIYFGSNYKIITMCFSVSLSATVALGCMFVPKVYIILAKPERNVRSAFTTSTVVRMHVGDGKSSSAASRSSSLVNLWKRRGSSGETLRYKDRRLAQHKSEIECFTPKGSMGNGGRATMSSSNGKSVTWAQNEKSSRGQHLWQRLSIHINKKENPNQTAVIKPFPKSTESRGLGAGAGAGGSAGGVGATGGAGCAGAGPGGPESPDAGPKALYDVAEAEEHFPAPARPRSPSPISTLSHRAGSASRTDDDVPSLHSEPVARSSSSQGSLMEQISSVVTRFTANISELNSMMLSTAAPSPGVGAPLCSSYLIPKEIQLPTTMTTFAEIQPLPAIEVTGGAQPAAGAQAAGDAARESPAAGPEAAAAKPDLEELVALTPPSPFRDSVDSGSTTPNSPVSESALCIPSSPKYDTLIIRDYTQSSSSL
- assay-remarks: Effective concentration against metabotropic glutamate receptor 5 of human transfected into CHO cells
pEC50: −log10 of the molar value.
measured-quantity: pEC50

Sample answers from the record:
O=C(Nc1cc(-c2ccccc2)nn1-c1ccccc1)c1cnccn1 : 6.70
O=C(Nc1cc(-c2ccccc2)nn1-c1ccccc1)c1cccs1 : 6.70
O=C(Nc1cc(-c2ccccc2)nn1-c1ccccc1)c1ccc(C(F)(F)F)cc1 : 7.72

I. Cc1cccc(C(=O)Nc2cc(-c3ccccc3)nn2-c2ccccc2)c1
II. O=C(Nc1cc(-c2ccccc2)nn1-c1ccccc1)c1ccccc1
III. O=C(Nc1cc(-c2ccccc2)nn1-c1ccccc1)c1cccc(F)c1
IV. O=C(Nc1cc(-c2ccccc2)nn1-c1ccccc1)c1ccccn1
Arrange items by their pEC50 values in increasing order. State the ranking by listing the labels in the requested order.
IV, I, II, III
(IV: 6.54, I: 7.05, II: 7.40, III: 7.70)

I. O=C(Nc1cc(-c2ccccc2)nn1-c1ccccc1)c1ccccc1F
II. O=C(Nc1cc(-c2ccccc2)nn1-c1ccccc1)c1cccc(Cl)c1
III. O=C(Nc1cc(-c2ccccc2)nn1-c1ccccc1)c1ccc(Cl)cc1
IV. O=C(Nc1ccc(Br)cc1CN1C(=O)c2ccccc2C1=O)c1ccccn1
V. O=C(Nc1ccc(Cl)cc1CN1C(=O)c2ccccc2C1=O)c1ccccn1
Arrange items by their pEC50 values in increasing order. State the ranking by listing the labels in the requested order.
IV, V, I, II, III

I. O=C(Nc1cc(-c2ccccc2)nn1-c1ccccc1)c1ccc(F)cc1
II. O=C(Nc1cc(-c2ccccc2)nn1-c1ccccc1)c1ccc(F)c(F)c1
III. Fc1cccc(/C=N/N=C/c2cccc(F)c2)c1
IV. O=C(Nc1cc(-c2ccccc2)nn1-c1ccccc1)c1ccccc1Cl
Arrange items by their pEC50 values in increasing order. State the ranking by listing the labels in the requested order.
IV, I, II, III

1. Cc1ccc(C(=O)Nc2cc(-c3ccccc3)nn2-c2ccccc2)cc1
2. O=C(Nc1cc(-c2ccccc2)nn1-c1ccccc1)c1ccsc1
Would you kindly point out which of 1 and 2 has the smaller pEC50 figure? Mark your answer with the label of the selected entry.
2

The measured values listed here are drawn from ChEMBL document CHEMBL1138840.
